Reported melting point is given for each of the following molecules.

> print(dat)
                                     smiles  reported.measurement
1  C#CCn1ccc(=O)n(CC(=O)Nc2ccc(Oc3ccccc3)cc2)c1=O         226 to 228 °C
2  O=C(Cn1c(=O)ccn(CC=Cc2ccccc2)c1=O)Nc1ccc(Oc2ccccc2)cc1         184 to 185 °C
3  Cc1ccc(Cn2ccc(=O)n(CC(=O)Nc3ccc(Oc4ccccc4)cc3)c2=O)cc1         193 to 194 °C

Sample O=C(Cn1c(=O)ccn(CCOc2ccccc2)c1=O)Nc1ccc(Oc2ccccc2)cc1 ; melting point observed: 154 to 155 °C

Sample Cc1cc(C)cc(Cn2ccc(=O)n(CC(=O)Nc3ccc(Oc4ccccc4)cc3)c2=O)c1 ; melting point observed: 99 to 101 °C
